Data origin, for the record: patent US12247015B2

Target: hMRGX2 (CHO-K1 cells overexpressing MRGX2) (Homo sapiens (Human), UniProt Q96LB1)
Sequence (Q96LB1 whole entry): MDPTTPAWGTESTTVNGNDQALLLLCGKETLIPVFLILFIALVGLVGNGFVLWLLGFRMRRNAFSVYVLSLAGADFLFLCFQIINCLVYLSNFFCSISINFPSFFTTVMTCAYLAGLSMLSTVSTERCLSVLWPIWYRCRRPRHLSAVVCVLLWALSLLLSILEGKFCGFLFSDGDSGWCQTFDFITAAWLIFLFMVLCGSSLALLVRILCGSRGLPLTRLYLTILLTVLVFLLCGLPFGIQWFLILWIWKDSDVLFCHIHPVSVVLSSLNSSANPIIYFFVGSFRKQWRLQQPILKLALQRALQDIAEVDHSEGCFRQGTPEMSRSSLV
Assay: In vitro inhibition (EC50) of intracellular calcium flux, FLIPR Tetra, substance P stimulation
Assay type: cell-based
Conditions: stimulated with MRGX2 ligand substance P, FLIPR Calcium 5, read-out: hMRGX2 Cellular Potency (pEC50) (converted)
Protocol: In Vitro Inhibition (EC50) of Intracellular Calcium Flux The release of intracellular calcium following stimulation of cells with substance P in the presence or absence of inhibitor compounds was measured using the FLIPR Tetra® system. […] Test compounds were added to cells (11-point dose response, 10 µM maximum concentration) and fluorescence measured (120 seconds, in real time) using the FLIPR Tetra® system. […]
reported.endpoint: EC50 (nM)

Guide cases for EC50, answers given:
{"smiles.data": "O=S1(=O)N=C(NCc2ccccn2)Nc2c(-c3ccccc3Cl)cccc21", "number": 26.4}
{"smiles.data": "O=S1(=O)N=C(NCCc2ccncc2)Nc2c(-c3cccc(F)c3Cl)cccc21", "number": 305}

[I] CO[C@H](C)CNC1=NS(=O)(=O)c2cccc(-c3cccc(F)c3Cl)c2N1
[II] COCCNC1=NS(=O)(=O)c2cccc(-c3cccc(F)c3Cl)c2N1
[III] COc1cccc(CNC2=NS(=O)(=O)c3cccc(-c4cccc(F)c4F)c3N2)n1
Sort (3 molecules) by EC50: min first. Provide your answer as the labels ordered per the instruction.
III, II, I

----------
Target: hMRGX2 (CHO-K1 cells overexpressing MRGX2) (Homo sapiens (Human), UniProt Q96LB1)
Test: In vitro inhibition (EC50) of intracellular calcium flux, FLIPR Tetra, substance P stimulation
Assay type: cell-based
Details: stimulated with MRGX2 ligand substance P, FLIPR Calcium 5, read-out: hMRGX2 Cellular Potency (pEC50) (converted)
reported.endpoint: EC50 (nM)

[a] Cc1nn(C)cc1-c1cccc2c1NC(NCC1CCC1)=NS2(=O)=O
[b] CNC1=NS(=O)(=O)c2cccc(-c3ccccc3Cl)c2N1
[c] CO[C@H](C)CNC1=NS(=O)(=O)c2cccc(-c3cccc(F)c3F)c2N1 (single isomer, unassigned)
[d] CN(C)C(=O)CNC1=NS(=O)(=O)c2cccc(-c3cccc(F)c3Cl)c2N1
Rank the items above by EC50, largest value first. Provide your answer as the labels ordered per the instruction.
a, d, b, c
(a: 430 nM, d: 279 nM, b: 102 nM, c: 64.1 nM)

----------
Target: hMRGX2 (CHO-K1 cells overexpressing MRGX2) (Homo sapiens (Human), UniProt Q96LB1)
Assay: In vitro inhibition (EC50) of intracellular calcium flux, FLIPR Tetra, substance P stimulation
Assay type: cell-based
Details: stimulated with MRGX2 ligand substance P, FLIPR Calcium 5, read-out: hMRGX2 Cellular Potency (pEC50) (converted)
reported.endpoint: EC50 (nM)

{"molecule": "COc1cccnc1CNC1=NS(=O)(=O)c2cccc(-c3cccc(F)c3Cl)c2N1 [Example 122]", "system.under.test": "hMRGX2 (CHO-K1 cells overexpressing MRGX2) (Homo sapiens (Human), UniProt Q96LB1)", "EC50 [nM]": 30.3}
{"molecule": "CCc1ccccc1-c1cccc2c1NC(NC)=NS2(=O)=O [Example 91]", "system.under.test": "hMRGX2 (CHO-K1 cells overexpressing MRGX2) (Homo sapiens (Human), UniProt Q96LB1)", "EC50 [nM]": 81.8}
{"molecule": "O=S1(=O)N=C(Nc2ccccc2)Nc2c(C3CC3)cccc21 [Example 121]", "system.under.test": "hMRGX2 (CHO-K1 cells overexpressing MRGX2) (Homo sapiens (Human), UniProt Q96LB1)", "EC50 [nM]": 431}
{"molecule": "CC(C)c1ccc(NC2=NS(=O)(=O)c3cccc(-c4cnn(C5CC(F)(F)C5)c4)c3N2)cc1 [Example 104]", "system.under.test": "hMRGX2 (CHO-K1 cells overexpressing MRGX2) (Homo sapiens (Human), UniProt Q96LB1)", "EC50 [nM]": 89.1}
{"molecule": "O=S1(=O)N=C(NCCF)Nc2c(-c3cccc(F)c3Cl)cccc21 [Example 147]", "system.under.test": "hMRGX2 (CHO-K1 cells overexpressing MRGX2) (Homo sapiens (Human), UniProt Q96LB1)", "EC50 [nM]": 51.1}

[A] O=S1(=O)N=C(NCc2nccs2)Nc2c(-c3cccc(F)c3Cl)cccc21 [Example 65]
[B] CNC1=NS(=O)(=O)c2cccc(-c3cccc(F)c3C#N)c2N1 [Example 89]
Which is greater in EC50, the first item A or the second item B ? Please identify the chosen entry by its label.
B

[P] CCNC1=NS(=O)(=O)c2cccc(-c3cc(F)ccc3F)c2N1 [Example 143]
[Q] Cc1nn(C)cc1-c1cccc2c1NC(Nc1ccc(C(C)C)cc1)=NS2(=O)=O [Example 103]
Of P versus Q , which is the one with smaller reported EC50? Please identify the chosen entry by its label.
Q
(Q: 51.2 nM, P: 443 nM)

[P] CC(C)c1ccc(NC2=NS(=O)(=O)c3cccc(-c4ccccc4Cl)c3N2)cn1 [Example 117]
[Q] O=S1(=O)N=C(NCC2CCC2)Nc2c(-c3cccc(F)c3Cl)cccc21 [Example 17]
[R] CO[C@@H](C)CNC1=NS(=O)(=O)c2cccc(-c3cccc(F)c3F)c2N1 [Example 25]
List items by EC50 in falling order. Provide your answer as the labels ordered per the instruction.
R, P, Q

----------
Biological target: hMRGX2 (CHO-K1 cells overexpressing MRGX2) (Homo sapiens (Human), UniProt Q96LB1)
Assay: In vitro inhibition (EC50) of intracellular calcium flux, FLIPR Tetra, substance P stimulation
Type: cell-based
Settings: stimulated with MRGX2 ligand substance P, FLIPR Calcium 5, read-out: hMRGX2 Cellular Potency (pEC50) (converted)
reported.endpoint: EC50 (µM)

[A] CO[C@@H](C)CNC1=NS(=O)(=O)c2cccc(-c3cc(F)cc(F)c3F)c2N1 (single isomer, unassigned)
[B] CCNC1=NS(=O)(=O)c2cccc(-c3ccccc3Cl)c2N1
Of A versus B , which is the one with smaller reported EC50? Please identify the chosen entry by its label.
A

[P] O=S1(=O)N=C(NCc2ncccn2)Nc2c(-c3cccc(F)c3Cl)cccc21
[Q] O=S1(=O)N=C(NCCCF)Nc2c(-c3cccc(F)c3Cl)cccc21
Which is greater in EC50, the first item P or the second item Q ? Please identify the chosen entry by its label.
Q
(Q: 0.223 µM, P: 0.0294 µM)

----------
Target: hMRGX2 (CHO-K1 cells overexpressing MRGX2) (Homo sapiens (Human))
Assay: In vitro inhibition (EC50) of intracellular calcium flux, FLIPR Tetra, substance P stimulation
Format: cell-based
Settings: stimulated with MRGX2 ligand substance P, FLIPR Calcium 5, read-out: hMRGX2 Cellular Potency (pEC50) (converted)
reported.endpoint: EC50 (nM)

[A] CNC1=NS(=O)(=O)c2cccc(-c3cc(F)cc(F)c3F)c2N1 [Example 96]
[B] CO[C@H](C)CCNC1=NS(=O)(=O)c2cccc(-c3cccc(F)c3Cl)c2N1 (single isomer, unassigned) [Example 154]
[C] COC(C)CNC1=NS(=O)(=O)c2cccc(-c3cccc(F)c3C#N)c2N1 (centres unmarked) [Example 150]
[D] COCCNC1=NS(=O)(=O)c2cccc(-c3ccccc3Cl)c2N1 [Example 35]
[E] CO[C@H](C)CNC1=NS(=O)(=O)c2cccc(-c3cc(F)cc(F)c3F)c2N1 (single isomer, unassigned) [Example 129]
Rank the items above by EC50, largest value first. Provide your answer as the labels ordered per the instruction.
E, A, C, D, B

[1] CC(C)c1ccc(NC2=NS(=O)(=O)c3cccc(-n4cccn4)c3N2)cc1 [Example 100]
[2] O=S1(=O)N=C(NCc2ncco2)Nc2c(-c3cccc(F)c3Cl)cccc21 [Example 28]
[3] CNC1=NS(=O)(=O)c2cc(F)cc(-c3ccccc3Cl)c2N1 [Example 13]
[4] COC(C)CNC1=NS(=O)(=O)c2cccc(-c3cc(F)cc(F)c3)c2N1 (centres unmarked) [Example 166]
[5] CNC1=NS(=O)(=O)c2cccc(-c3cccc(F)c3Cl)c2N1 [Example 1]
List items by EC50 in falling order. Provide your answer as the labels ordered per the instruction.
1, 4, 5, 3, 2

----------
Target: hMRGX2 (CHO-K1 cells overexpressing MRGX2) (Homo sapiens (Human), UniProt Q96LB1)
Experiment: In vitro inhibition (EC50) of intracellular calcium flux, FLIPR Tetra, substance P stimulation
Format: cell-based
Conditions: stimulated with MRGX2 ligand substance P, FLIPR Calcium 5, read-out: hMRGX2 Cellular Potency (pEC50) (converted)
reported.endpoint: EC50 (µM)

[1] COCCNC1=NS(=O)(=O)c2cccc(-c3ccccc3C3CC3)c2N1
[2] O=S1(=O)N=C(NCc2ccccc2F)Nc2c(-c3cc(F)cc(F)c3)cccc21
Which is greater in EC50, the first item 1 or the second item 2 ? Please identify the chosen entry by its label.
1
(1: 0.953 µM, 2: 0.0349 µM)

[I] O=S1(=O)N=C(NCCc2ccccn2)Nc2c(-c3cccc(F)c3Cl)cccc21
[II] CO[C@H](C)CNC1=NS(=O)(=O)c2cccc(-c3cc(F)cc(F)c3)c2N1 (single isomer, unassigned)
Of I versus II , which is the one with smaller reported EC50? Please identify the chosen entry by its label.
I
(I: 0.0366 µM, II: 0.249 µM)
